- TGT: Tyrosine-protein kinase receptor UFO (Homo sapiens, UniProt P30530)
- Sequence (P30530 whole entry): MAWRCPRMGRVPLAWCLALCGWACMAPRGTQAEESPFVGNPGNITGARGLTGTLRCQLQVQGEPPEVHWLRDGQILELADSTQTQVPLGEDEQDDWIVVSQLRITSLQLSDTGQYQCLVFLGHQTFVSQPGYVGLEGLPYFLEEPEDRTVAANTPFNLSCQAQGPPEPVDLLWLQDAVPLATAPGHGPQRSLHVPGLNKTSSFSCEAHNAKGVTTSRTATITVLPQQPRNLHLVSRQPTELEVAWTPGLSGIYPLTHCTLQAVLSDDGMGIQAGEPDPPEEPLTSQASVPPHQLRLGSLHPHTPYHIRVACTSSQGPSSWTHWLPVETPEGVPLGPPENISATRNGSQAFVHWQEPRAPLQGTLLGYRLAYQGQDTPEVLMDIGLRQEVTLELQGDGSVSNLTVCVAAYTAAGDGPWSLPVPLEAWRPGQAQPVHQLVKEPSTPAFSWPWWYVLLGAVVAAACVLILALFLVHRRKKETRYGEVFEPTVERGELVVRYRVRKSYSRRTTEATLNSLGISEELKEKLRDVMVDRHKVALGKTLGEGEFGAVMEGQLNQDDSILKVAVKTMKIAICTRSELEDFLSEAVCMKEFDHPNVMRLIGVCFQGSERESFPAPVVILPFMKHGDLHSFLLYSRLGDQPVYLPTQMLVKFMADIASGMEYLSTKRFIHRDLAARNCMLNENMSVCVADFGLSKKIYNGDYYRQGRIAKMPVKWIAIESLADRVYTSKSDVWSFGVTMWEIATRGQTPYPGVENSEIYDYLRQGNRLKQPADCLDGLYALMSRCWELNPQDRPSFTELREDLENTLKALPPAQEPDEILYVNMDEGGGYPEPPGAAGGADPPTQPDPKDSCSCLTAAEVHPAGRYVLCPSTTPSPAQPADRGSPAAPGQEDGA
READOUT_LABEL: IC50
Report field: quantity (unit follows the number).

Req: Can you look up the measured IC50 of `COc1ccc(Cc2nnc(N3CCN(C(=O)Nc4ccc(Cl)c(C(F)(F)F)c4)CC3)c3ccccc23)cc1` for me?
Resp: 5.65 µM

Req: GET /values?readout=IC50&item= `COc1ccc(NC(=O)N2CCN(c3nnc(Cc4ccccc4)c4ccccc34)CC2)cc1`
Resp: 2.33 µM

Req: What does the record list as IC50 for `O=C(c1ccccc1)N1CCN(c2nnc(Cc3ccccc3)c3ccccc23)CC1` ?
Resp: 4.88 µM

Req: Form field: reported IC50 of `COc1ccc(Cc2nnc(N3CCN(C(=O)Nc4ccccc4)CC3)c3ccccc23)cc1`
Resp: 2.37 µM
